HC10 overview
Test system: rat erythrocytes
experiment_notes: Hemolysis assay
Type: cell-based
condition: red cells of rat
Description: The hemolysis assay was performed using rat erythrocytes in phosphate‐buffered saline (PBS), as reported by Mendes et al.^[ [45] ^] Animal studies were approved by the Laboratory Animal Resource Center of Gwangju Institute of Science and Technology. […] Aliquots (150 µL) of the supernatant were transferred to fresh 96‐well plates, and the absorbance of each well was measured at 540 nm using a microplate reader. […]
Structures can show the parent of a compound that is named as a salt. Square brackets hold non-standard residues; d marks the D form. Peptide text beside a SMILES is read from it. Gly(N(CH2)2(3-indolyl)) = O=C(O)CNCCc1c[nH]c2ccccc12; Nspe = C[C@H](NCC(=O)O)c1ccccc1; Nlys = NCCCCNCC(=O)O

>  <compound>
C[C@@H](c1ccccc1)N(CC(N)=O)C(=O)CN(C(=O)CN(CCCCN)C(=O)CN(C(=O)CN(C(=O)CN(CCCCN)C(=O)CN(C(=O)CN(C(=O)CN(CCCCN)C(=O)CN(CCc1c[nH]c2ccccc12)C(=O)CN(CCc1c[nH]c2ccccc12)C(=O)CNCCCCN)[C@@H](C)c1ccccc1)[C@@H](C)c1ccccc1)[C@@H](C)c1ccccc1)[C@@H](C)c1ccccc1)[C@@H](C)c1ccccc1 [peptoid 14]

>  <study_system>
rat erythrocytes

>  <relational_operator>
=

>  <HC10 (µM)>
12.5

$$$$
>  <compound>
C[C@@H](c1ccccc1)N(CC(N)=O)C(=O)CN(C(=O)CN(CCCCN)C(=O)CN(C(=O)CN(C(=O)CN(CCCCN)C(=O)CN(C(=O)CN(C(=O)CN(CCCCN)C(=O)CN(CCc1c[nH]c2ccccc12)C(=O)CN(C(=O)CNCCCCN)[C@@H](C)c1ccccc1)[C@@H](C)c1ccccc1)[C@@H](C)c1ccccc1)[C@@H](C)c1ccccc1)[C@@H](C)c1ccccc1)[C@@H](C)c1ccccc1 [10-AcOH]

>  <study_system>
rat erythrocytes

>  <relational_operator>
=

>  <HC10 (µM)>
14.1

$$$$
>  <compound>
C[C@@H](c1ccccc1)N(CC(=O)N(CCCCN)CC(=O)N(CC(=O)N(CC(=O)N(CCCCN)CC(=O)N(CC(=O)N(CC(=O)N(CCCCN)CC(N)=O)[C@@H](C)c1ccccc1)[C@@H](C)c1ccccc1)[C@@H](C)c1ccccc1)[C@@H](C)c1ccccc1)C(=O)CN(C(=O)CN(CCCCN)C(=O)CN(CCc1c[nH]c2ccccc12)C(=O)CNCCc1c[nH]c2ccccc12)[C@@H](C)c1ccccc1 [37-AcOH] (H-[Gly(N(CH2)2(3-indolyl))][Gly(N(CH2)2(3-indolyl))][Nlys][Nspe][Nspe][Nlys][Nspe][Nspe][Nlys][Nspe][Nspe][Nlys]-NH2)

>  <study_system>
rat erythrocytes

>  <relational_operator>
=

>  <HC10 (µM)>
12.5

$$$$
>  <compound>
C[C@@H](c1ccccc1)N(CC(=O)N(CCCCN)CC(=O)N(CC(=O)N(CC(=O)N(CCCCN)CC(=O)N(CC(=O)N(CC(=O)N(CCCCN)CC(=O)N(CCc1c[nH]c2ccccc12)CC(=O)N(CCc1c[nH]c2ccccc12)CC(N)=O)[C@@H](C)c1ccccc1)[C@@H](C)c1ccccc1)[C@@H](C)c1ccccc1)[C@@H](C)c1ccccc1)C(=O)CN(C(=O)CNCCCCN)[C@@H](C)c1ccccc1 [11-AcOH] (H-[Nlys][Nspe][Nspe][Nlys][Nspe][Nspe][Nlys][Nspe][Nspe][Nlys][Gly(N(CH2)2(3-indolyl))][Gly(N(CH2)2(3-indolyl))]-NH2)

>  <study_system>
rat erythrocytes

>  <relational_operator>
=

>  <HC10 (µM)>
8.7

$$$$
>  <compound>
C[C@@H](c1ccccc1)N(CC(N)=O)C(=O)CN(CCCCN)C(=O)CN(CCCCN)C(=O)CN(C(=O)CN(C(=O)CN(CCCCN)C(=O)CN(C(=O)CN(C(=O)CN(CCCCN)C(=O)CN(CCc1c[nH]c2ccccc12)C(=O)CN(CCc1c[nH]c2ccccc12)C(=O)CNCCCCN)[C@@H](C)c1ccccc1)[C@@H](C)c1ccccc1)[C@@H](C)c1ccccc1)[C@@H](C)c1ccccc1 [peptoid 32]

>  <study_system>
rat erythrocytes

>  <relational_operator>
>

>  <HC10 (µM)>
100

$$$$
>  <compound>
C[C@@H](c1ccccc1)N(CC(=O)N(CCCCN)CC(=O)N(CC(=O)N(CC(=O)N(CCCCN)CC(=O)N(CC(=O)N(CC(=O)N(CCCCN)CC(=O)N(CCc1c[nH]c2ccccc12)CC(=O)N(CCc1c[nH]c2ccccc12)CC(N)=O)[C@@H](C)c1ccccc1)[C@@H](C)c1ccccc1)[C@@H](C)c1ccccc1)[C@@H](C)c1ccccc1)C(=O)CN(C(=O)CNCCCCN)[C@@H](C)c1ccccc1 [peptoid 11] (H-[Nlys][Nspe][Nspe][Nlys][Nspe][Nspe][Nlys][Nspe][Nspe][Nlys][Gly(N(CH2)2(3-indolyl))][Gly(N(CH2)2(3-indolyl))]-NH2)

>  <study_system>
rat erythrocytes

>  <relational_operator>
=

>  <HC10 (µM)>
6.9

$$$$
>  <compound>
C[C@@H](c1ccccc1)N(CC(N)=O)C(=O)CN(C(=O)CN(CCCCN)C(=O)CN(C(=O)CN(CCc1c[nH]c2ccccc12)C(=O)CN(CCCCN)C(=O)CN(CCc1c[nH]c2ccccc12)C(=O)CN(C(=O)CN(CCCCN)C(=O)CN(C(=O)CN(C(=O)CNCCCCN)[C@@H](C)c1ccccc1)[C@@H](C)c1ccccc1)[C@@H](C)c1ccccc1)[C@@H](C)c1ccccc1)[C@@H](C)c1ccccc1 [15-HCl]

>  <study_system>
rat erythrocytes

>  <relational_operator>
=

>  <HC10 (µM)>
50.4

$$$$
>  <compound>
C[C@@H](c1ccccc1)N(CC(N)=O)C(=O)CN(C(=O)CN(CCCCN)C(=O)CN(C(=O)CN(C(=O)CN(CCCCN)C(=O)CN(C(=O)CN(C(=O)CN(CCCCN)C(=O)CN(CCc1c[nH]c2ccccc12)C(=O)CN(C(=O)CNCCCCN)[C@@H](C)c1ccccc1)[C@@H](C)c1ccccc1)[C@@H](C)c1ccccc1)[C@@H](C)c1ccccc1)[C@@H](C)c1ccccc1)[C@@H](C)c1ccccc1 [10-HCl]

>  <study_system>
rat erythrocytes

>  <relational_operator>
=

>  <HC10 (µM)>
15.3

$$$$
>  <compound>
C[C@@H](c1ccccc1)N(CC(N)=O)C(=O)CN(C(=O)CN(CCCCN)C(=O)CN(C(=O)CN(CCc1c[nH]c2ccccc12)C(=O)CN(CCCCN)C(=O)CN(CCc1c[nH]c2ccccc12)C(=O)CN(C(=O)CN(CCCCN)C(=O)CN(C(=O)CN(C(=O)CNCCCCN)[C@@H](C)c1ccccc1)[C@@H](C)c1ccccc1)[C@@H](C)c1ccccc1)[C@@H](C)c1ccccc1)[C@@H](C)c1ccccc1 [15-AcOH]

>  <study_system>
rat erythrocytes

>  <relational_operator>
=

>  <HC10 (µM)>
39.2

$$$$

These measurements were taken from paper PMC10460844.
